Test: 8-day repeat-dose study, tolerability (blood chemistry, hematology, adverse events) in tumor-bearing dogs
Format: in vivo, dog
Details: Dog 1; Post: 30 min after last injection on day 8; 10 mg s.c. once daily for 8 days
Where a SMILES comes first, the peptide text is derived from it. [ ]: non-standard residue; d: D form. Hyp = O=C(O)[C@@H]1C[C@@H](O)CN1
MEASURED QUANTITY: Total Bilirubin (mg/dL)
Could you give me the number in mg/dL? Just the number is fine.

Query block: Please look up its Total Bilirubin: CC(C)[C@@H]1NC(=O)[C@@H]2C[C@@H](O)CN2C(=O)[C@H]([C@@H](C)O)NC(=O)[C@H](CCCCN)NC(=O)[C@H](CCC(=O)O)NC(=O)[C@H](CC(N)=O)NC(=O)CNC(=O)[C@@H]2C[C@@H](O)CN2C(=O)[C@H](CC(N)=O)NC1=O [AFPep] (cyclo(EKT[Hyp]VN[Hyp]GN))
Result block: 0.1

* * *

Assay: 8-day repeat-dose study, tolerability (blood chemistry, hematology, adverse events) in tumor-bearing dogs
Assay type: in vivo, dog
Conditions: Dog 2; Post: 30 min after last injection on day 8; 10 mg s.c. once daily for 8 days
Protocol: Previous studies utilizing repeat dosing in mice and rats established safe starting doses for studies using dogs. […] Blood levels of AFPep were measured before and 30 minutes following its administration on the first day and eighth day of treatment with AFPep. […] Tolerability was assessed using the Veterinary Cooperative Oncology Group Common Terminology Criteria for Adverse Events. […]
Where a SMILES comes first, the peptide text is derived from it. [ ]: non-standard residue; d: D form. Hyp = O=C(O)[C@@H]1C[C@@H](O)CN1
MEASURED QUANTITY: Phosphorous (mg/dL)
// note: answer is a bare numeric in mg/dL

Query block: Please look up its Phosphorous: CC(C)[C@@H]1NC(=O)[C@@H]2C[C@@H](O)CN2C(=O)[C@H]([C@@H](C)O)NC(=O)[C@H](CCCCN)NC(=O)[C@H](CCC(=O)O)NC(=O)[C@H](CC(N)=O)NC(=O)CNC(=O)[C@@H]2C[C@@H](O)CN2C(=O)[C@H](CC(N)=O)NC1=O [AFPep] (cyclo(EKT[Hyp]VN[Hyp]GN))
Result block: 3

* * *

Experiment: 8-day repeat-dose study, tolerability (blood chemistry, hematology, adverse events) in tumor-bearing dogs
Format: in vivo, dog
Settings: Dog 5; Post: 30 min after last injection on day 8; 10 mg s.c. once daily for 8 days
Description: Previous studies utilizing repeat dosing in mice and rats established safe starting doses for studies using dogs. […] Blood levels of AFPep were measured before and 30 minutes following its administration on the first day and eighth day of treatment with AFPep. […] Tolerability was assessed using the Veterinary Cooperative Oncology Group Common Terminology Criteria for Adverse Events. […]
Where a SMILES comes first, the peptide text is derived from it. [ ]: non-standard residue; d: D form. Hyp = O=C(O)[C@@H]1C[C@@H](O)CN1
MEASURED QUANTITY: ALT (U/L)
Please reply with the bare figure in U/L and do not write the unit itself.

Query block: What measured ALT goes with CC(C)[C@@H]1NC(=O)[C@@H]2C[C@@H](O)CN2C(=O)[C@H]([C@@H](C)O)NC(=O)[C@H](CCCCN)NC(=O)[C@H](CCC(=O)O)NC(=O)[C@H](CC(N)=O)NC(=O)CNC(=O)[C@@H]2C[C@@H](O)CN2C(=O)[C@H](CC(N)=O)NC1=O [AFPep] (cyclo(EKT[Hyp]VN[Hyp]GN)) ?
Result block: 29

* * *

Assay: 8-day repeat-dose study, tolerability (blood chemistry, hematology, adverse events) in tumor-bearing dogs
Assay type: in vivo, dog
Conditions: Dog 1; Post: 30 min after last injection on day 8; 10 mg s.c. once daily for 8 days
Where a SMILES comes first, the peptide text is derived from it. [ ]: non-standard residue; d: D form. Hyp = O=C(O)[C@@H]1C[C@@H](O)CN1
MEASURED QUANTITY: ALP (U/L)
Write the value in U/L as a bare number.

Query block: Reported ALP for CC(C)[C@@H]1NC(=O)[C@@H]2C[C@@H](O)CN2C(=O)[C@H]([C@@H](C)O)NC(=O)[C@H](CCCCN)NC(=O)[C@H](CCC(=O)O)NC(=O)[C@H](CC(N)=O)NC(=O)CNC(=O)[C@@H]2C[C@@H](O)CN2C(=O)[C@H](CC(N)=O)NC1=O [AFPep] (cyclo(EKT[Hyp]VN[Hyp]GN)) : what is it?
Result block: 261

* * *

Assay: in vivo
Set-up: species or system Macaca mulatta
Conditions: monkey, sc, 4 mg/kg
Where a SMILES comes first, the peptide text is derived from it. [ ]: non-standard residue; d: D form. Hyp = O=C(O)[C@@H]1C[C@@H](O)CN1
MEASURED QUANTITY: AUC (ng·h/mL)
Give the quantity in ng·h/mL, number only.

Query block: What AUC value was documented for this compound, CC(C)[C@@H]1NC(=O)[C@@H]2C[C@@H](O)CN2C(=O)[C@H]([C@@H](C)O)NC(=O)[C@H](CCCCN)NC(=O)[C@H](CCC(=O)O)NC(=O)[C@H](CC(N)=O)NC(=O)CNC(=O)[C@@H]2C[C@@H](O)CN2C(=O)[C@H](CC(N)=O)NC1=O [AFPep] (cyclo(EKT[Hyp]VN[Hyp]GN)) ?
Result block: 23400

* * *

Test: 8-day repeat-dose study, tolerability (blood chemistry, hematology, adverse events) in tumor-bearing dogs
Type: in vivo, dog
Conditions: Dog 6; Post: 30 min after last injection on day 8; 10 mg s.c. once daily for 8 days
Where a SMILES comes first, the peptide text is derived from it. [ ]: non-standard residue; d: D form. Hyp = O=C(O)[C@@H]1C[C@@H](O)CN1
MEASURED QUANTITY: Platelets

Query block: I would be grateful if you could share the reported Platelets for CC(C)[C@@H]1NC(=O)[C@@H]2C[C@@H](O)CN2C(=O)[C@H]([C@@H](C)O)NC(=O)[C@H](CCCCN)NC(=O)[C@H](CCC(=O)O)NC(=O)[C@H](CC(N)=O)NC(=O)CNC(=O)[C@@H]2C[C@@H](O)CN2C(=O)[C@H](CC(N)=O)NC1=O [AFPep] (cyclo(EKT[Hyp]VN[Hyp]GN)) .
Result block: 519 10^3/µL

* * *

Assay: 8-day repeat-dose study, tolerability (blood chemistry, hematology, adverse events) in tumor-bearing dogs
Format: in vivo, dog
Conditions: Dog 2; Post: 30 min after last injection on day 8; 10 mg s.c. once daily for 8 days
Method: Previous studies utilizing repeat dosing in mice and rats established safe starting doses for studies using dogs. […] Blood levels of AFPep were measured before and 30 minutes following its administration on the first day and eighth day of treatment with AFPep. […] Tolerability was assessed using the Veterinary Cooperative Oncology Group Common Terminology Criteria for Adverse Events. […]
Where a SMILES comes first, the peptide text is derived from it. [ ]: non-standard residue; d: D form. Hyp = O=C(O)[C@@H]1C[C@@H](O)CN1
MEASURED QUANTITY: BUN (mg/dL)
Entry rule: numbers only, all in mg/dL.

Query block: Given CC(C)[C@@H]1NC(=O)[C@@H]2C[C@@H](O)CN2C(=O)[C@H]([C@@H](C)O)NC(=O)[C@H](CCCCN)NC(=O)[C@H](CCC(=O)O)NC(=O)[C@H](CC(N)=O)NC(=O)CNC(=O)[C@@H]2C[C@@H](O)CN2C(=O)[C@H](CC(N)=O)NC1=O [AFPep] (cyclo(EKT[Hyp]VN[Hyp]GN)) , state its recorded BUN.
Result block: 14

* * *

Assay: 8-day repeat-dose study, tolerability (blood chemistry, hematology, adverse events) in tumor-bearing dogs
Assay type: in vivo, dog
Settings: Dog 6; Post: 30 min after last injection on day 8; 10 mg s.c. once daily for 8 days
Where a SMILES comes first, the peptide text is derived from it. [ ]: non-standard residue; d: D form. Hyp = O=C(O)[C@@H]1C[C@@H](O)CN1
MEASURED QUANTITY: Creatine Kinase
Reply with the number and its unit after it.

Query block: So what's the measured Creatine Kinase for this one? CC(C)[C@@H]1NC(=O)[C@@H]2C[C@@H](O)CN2C(=O)[C@H]([C@@H](C)O)NC(=O)[C@H](CCCCN)NC(=O)[C@H](CCC(=O)O)NC(=O)[C@H](CC(N)=O)NC(=O)CNC(=O)[C@@H]2C[C@@H](O)CN2C(=O)[C@H](CC(N)=O)NC1=O [AFPep] (cyclo(EKT[Hyp]VN[Hyp]GN))
Result block: 80 U/L

* * *

Experiment: 8-day repeat-dose study, tolerability (blood chemistry, hematology, adverse events) in tumor-bearing dogs
Assay type: in vivo, dog
Details: Dog 5; Post: 30 min after last injection on day 8; 10 mg s.c. once daily for 8 days
Where a SMILES comes first, the peptide text is derived from it. [ ]: non-standard residue; d: D form. Hyp = O=C(O)[C@@H]1C[C@@H](O)CN1
MEASURED QUANTITY: Globulin
Entry format: amount then unit.

Query block: Which measured Globulin value corresponds to CC(C)[C@@H]1NC(=O)[C@@H]2C[C@@H](O)CN2C(=O)[C@H]([C@@H](C)O)NC(=O)[C@H](CCCCN)NC(=O)[C@H](CCC(=O)O)NC(=O)[C@H](CC(N)=O)NC(=O)CNC(=O)[C@@H]2C[C@@H](O)CN2C(=O)[C@H](CC(N)=O)NC1=O [AFPep] (cyclo(EKT[Hyp]VN[Hyp]GN)) ?
Result block: 3 g/dL

Data provenance is paper PMC9913752.
